System: MDA-MB-435 melanoma
Procedure text: NCI-60 one-dose screen, 48 h
Applied conditions: 10 µM unless noted
This is part of a sample that, as a whole, favours compounds with a hit. Of some 83,000 tested, about 20% had one in any assay. Activity calls are given as the source filed them. How the source made its calls: active means growth percent below 10; inactive means the rest.
Outcome codes: active, inactive

{"Compound": "O=C1/C(=C\\c2cccn2C(=O)c2ccccc2)c2ccccc2N1c1c(Cl)cccc1Cl", "Category label": "inactive"}
{"Compound": "CCc1ccc(Nc2cc(C)c3ccc(O)cc3n2)cc1", "Category label": "inactive"}
{"Compound": "COc1ccc(-c2nsc3c2NC(=O)CC3c2ccc3c(c2)OCO3)cc1 (stereo not given)", "Category label": "active"}
{"Compound": "COc1ccc(C2=Nn3c(nnc3-c3ccc(Cl)cc3N)SC2)cc1", "Category label": "inactive"}
{"Compound": "CC1=C(C(=O)Nc2ccc(F)cc2)C(c2ccccc2)C2=C(CC(C)(C)CC2=O)N1 (stereo not given)", "Category label": "inactive"}

* * *

Tested on: OVCAR-5 ovarian
Procedure text: NCI-60 one-dose screen, 48 h (100 = growth as untreated, 0 = no growth, -100 = all killed)
Applied conditions: 10 µM unless noted
Compounds without any hit were thinned out: in the full panel of roughly 83,000, 20% have a hit.

{"Molecule": "Cc1nn(-c2ccc(Cl)cc2)c(=O)n1CCN1CCOCC1", "growth, %": 92.4}
{"Molecule": "COc1ccccc1/C=N\\NC(=S)Nc1ccc(F)cc1", "growth, %": 94.1}
{"Molecule": "O=C(O)C1[S][Sb]([CH](C(=O)O)[CH](C(=O)O)[Sb]2[S]C(C(=O)O)C(C(=O)O)[S]2)[S]C1C(=O)O (configuration not stated)", "growth, %": 118}
{"Molecule": "Cc1ccc(-c2nc3ccccc3c(=O)n2/N=C/c2cccc3ccccc23)cc1", "growth, %": 102}
{"Molecule": "CCOP(=O)(O)OP(=O)(O)OCC", "growth, %": 96.9}
{"Molecule": "O=C(Nc1ccc2[nH]c3ccccc3c2c1)c1ccccc1Cl", "growth, %": 82.4}
{"Molecule": "CCCCn1cnc(-c2cc(-c3ccccc3)cc(C(F)(F)F)c2)n1", "growth, %": 113}

* * *

Tested on: COLO 205 colon
Procedure text: NCI-60 one-dose screen, 48 h
Applied conditions: 10 µM unless noted
This is part of a sample that, as a whole, favours compounds with a hit. Of some 83,000 tested, about 20% had one in any assay. Active and inactive are the calls of the source. How the source made its calls: active means growth percent below 10; inactive means the rest.
Outcome codes: T = active, F = inactive

{"Compound": "COc1c(B(O)O)cccc1-c1nc2ccc3[nH]ncc3c2c2c1CCCC2", "Category label": "T"}
{"Compound": "Cc1cc(C)cc(NC(=O)Cn2nncc2CN2C(=O)CSC2=O)c1", "Category label": "F"}
{"Compound": "CC(C)N=C1CCCC1C(=S)SSC(=S)C1CCCC1=NC(C)C (centres undefined)", "Category label": "F"}
{"Compound": "CCOc1ccc([C@@H]2[C@@H](Oc3ccccc3)C(=O)N2c2cc(OC)c(OC)c(OC)c2)cc1", "Category label": "T"}
{"Compound": "COc1cc(C2=NOC(c3cc(OC)c(OC)c(OC)c3)C2)ccc1OCCCCOc1cc2c(cc1OC)C(=O)N1CCC[C@H]1C=N2 (some centres undefined)", "Category label": "T"}
{"Compound": "O=C(C(=O)c1cccnc1)c1cccnc1", "Category label": "F"}
{"Compound": "Cc1ccc(NC(=O)c2[nH]c(SCCN(C)C)nc2-c2ccc(F)cc2)cc1Nc1ccc2ncn(C)c(=O)c2c1", "Category label": "F"}
{"Compound": "CCOc1c(C#N)c2c(N)ncnc2n1C1OC(CO)C(O)C1O (centres undefined)", "Category label": "T"}
{"Compound": "COc1ccc(/C=C2\\N=C(c3cccnc3)N(c3ccccc3)NC2=O)cc1", "Category label": "F"}
{"Compound": "Oc1c(-c2cc(C(F)(F)F)[nH]n2)cc(Cl)c(OCc2ccc(Cl)cc2)c1-c1ccc(Cl)c(C(F)(F)F)c1", "Category label": "T"}
{"Compound": "Cc1ccc2oc(=O)cc(-c3nc4ccc([N+](=O)[O-])cc4[nH]3)c2c1", "Category label": "F"}
{"Compound": "CC(C)CC(NC(=O)C(CCCN=C(N)N)NC(=O)OCc1ccccc1)C(=O)NC(CNC(=O)/C=C/c1ccccc1)C(C)C (centres undefined)", "Category label": "F"}
{"Compound": "Nc1nonc1-c1nc2ccccc2n1Cc1ccc(F)cc1", "Category label": "F"}
{"Compound": "COC1=CC(c2ccc[nH]2)=N/C1=C\\c1[nH]c(C)c(C(=O)CCCCCCCCC(=O)O[C@H]2CC[C@H]3C4CCc5cc(O)ccc5C4CC[C@]23C)c1C (some centres undefined)", "Category label": "F"}
{"Compound": "CC1(C)C(N(O)C(=O)Nc2ccc(Cl)cc2)N(c2ccc(Cl)cc2)C(=O)N1CC(=O)N/N=C/C=C/c1ccc([N+](=O)[O-])o1 (centres undefined)", "Category label": "T"}
{"Compound": "NS(=O)(=O)c1ccc(N2N=C(c3cccs3)CC2c2ccccc2O)cc1 (centres undefined)", "Category label": "T"}
{"Compound": "Nc1nc(N)c2c(n1)NC(c1sc(Cl)nc1Cl)CC(c1ccccc1)=N2 (centres undefined)", "Category label": "F"}
{"Compound": "COc1ccc(-c2cn(-c3cccc(C(=O)/C=C/c4ccc(O)c(OC)c4)c3)c(=O)[nH]2)cc1", "Category label": "F"}
{"Compound": "Fc1ccc2c(CN3CCO[C@H](COc4cccc(Cl)c4)C3)c[nH]c2c1", "Category label": "F"}

* * *

System: UO-31 renal
Procedure text: NCI-60 one-dose screen, 48 h (100 = growth as untreated, 0 = no growth, -100 = all killed)
Applied conditions: 10 µM unless noted
The panel holds about 83,000 compounds, 20% with a hit somewhere; the sample as a whole holds those more often.

{"Compound": "CCOC(=O)C1=C(C)NC(SCc2nnc(-c3ccc(Cl)cc3)o2)=NC1c1ccc(Cl)cc1 (centres undefined)", "Unit of measure": "%", "growth": 48.7}
{"Compound": "Cc1ccc2cc3c(NC(=O)c4cccnc4)nn(C)c3nc2c1", "Unit of measure": "%", "growth": 78.6}
{"Compound": "CC(C)(C)c1ccc(Cn2c(-c3nonc3N)nc3ccccc32)cc1", "Unit of measure": "%", "growth": 51.4}
{"Compound": "CCOC(=O)c1ccc(N(CCC(=O)O)C(C)=O)cc1", "Unit of measure": "%", "growth": 79}

* * *

System: MDA-MB-231 breast
Procedure text: NCI-60 one-dose screen, 48 h (100 = growth as untreated, 0 = no growth, -100 = all killed)
Applied conditions: 10 µM unless noted
About 83,000 compounds went through this panel and 20% of them were active in at least one assay; those are over-represented in the sample as a whole.

{"Molecule": "CCCN(CCC)CC(O)COc1ccccc1C(=O)Nc1ccccc1 (stereo not given)", "growth, %": 96.5}
{"Molecule": "O=C1/C(=C\\c2cccn2Cc2ccc(Cl)cc2)c2ccccc2N1c1c(Cl)cccc1Cl", "growth, %": 68.1}
{"Molecule": "C=CCn1c(C)nc2cc(Nc3nc(N4CCOCC4)nc4nc[nH]c34)ccc21", "growth, %": 77.7}
{"Molecule": "N[C@@H](CO)C(=O)O", "growth, %": 93.4}
{"Molecule": "COc1ccc2[nH]cc(C(c3ccc(Cl)cc3)N3CCCC3)c2c1 (stereo not given)", "growth, %": 94.6}
{"Molecule": "CC(C)c1[nH]ncc1-c1nc2ccc3[nH]ncc3c2c2c1CCCC2", "growth, %": 35.6}
{"Molecule": "COc1ccc(-c2nnc(SCC(=O)Nc3ccc(C(=O)/C=C/c4ccc(Cl)cc4)cc3)n2-c2ccccc2)cc1", "growth, %": 79.6}
{"Molecule": "COc1ccc(C2C=C(c3ccc(Cl)cc3)N=C3SC=CN32)cc1 (stereo not given)", "growth, %": 112}
{"Molecule": "CCOc1ccc([C@@H]2[C@@H](Oc3ccccc3)C(=O)N2c2cc(OC)c(OC)c(OC)c2)cc1", "growth, %": 10.1}
{"Molecule": "C=CCn1c(SCC(=O)Nc2ccc(C(=O)/C=C/c3ccccc3)cc2)nnc1-c1ccc(OC)c(OC)c1", "growth, %": 77.1}
{"Molecule": "CC1(C)C(N(O)C(=O)Nc2ccc(Cl)cc2)N(c2ccc(Cl)cc2)C(=O)N1CC(=O)N/N=C/C=C/c1ccc([N+](=O)[O-])o1 (stereo not given)", "growth, %": -48.7}
{"Molecule": "O=C(OCc1ccc2c(Br)cc(Br)c(O)c2n1)c1cc2ccccc2[nH]1", "growth, %": -81.9}
{"Molecule": "Cc1ccc2oc(=O)cc(-c3nc4ccc([N+](=O)[O-])cc4[nH]3)c2c1", "growth, %": 64.2}
{"Molecule": "COCCn1c(Nc2ccc(C(=O)NO)cc2)nc2ccccc21", "growth, %": 81.5}
{"Molecule": "COc1ccc(/C=C2\\CCCC3=C2N=C2SC(C)=NN2C3c2ccc(OC)c(OC)c2)cc1OC (stereo not given)", "growth, %": 28.6}
